# testMethodNotes: Selectivity index, ratio of CC50 for bovine MDBK cells to EC50 for Bovine viral diarrhea virus 1-NADL
# Format: toxicity
# conditionNotes: cattle, read-out: Ratio CC50/EC50
# selectivity ratio per record follows

{"compound": "COc1cc2c(cc1OC)/C(=N/NC(N)=S)CC2", "selectivity ratio": "> 21.1"}
{"compound": "COc1cc2c(cc1OC)/C(=N/NC(=S)Nc1ccc([N+](=O)[O-])cc1)CC2", "selectivity ratio": "> 14.3"}
{"compound": "COc1cc2c(cc1OC)/C(=N/NC(=S)Nc1ccc(Cl)cc1)CC2", "selectivity ratio": "> 1.5"}
{"compound": "COc1cc2c(cc1OC)/C(=N/NC(=S)Nc1ccccc1)CC2", "selectivity ratio": "> 1.2"}
{"compound": "NC(=S)N/N=C1\\CCc2cc(F)ccc21", "selectivity ratio": 5.4}
{"compound": "COc1cc2c(cc1OC)/C(=N/NC(=S)Nc1ccc(F)cc1)CC2", "selectivity ratio": "> 5"}
{"compound": "NC(=S)N/N=C1\\CCc2ccc([N+](=O)[O-])cc21", "selectivity ratio": "> 9.3"}
{"compound": "COc1cc2c(cc1OC)/C(=N/NC(=S)Nc1ccc(C)cc1)CC2", "selectivity ratio": "> 2.3"}
{"compound": "COc1ccc(NC(=S)N/N=C2\\CCc3cc(OC)c(OC)cc32)cc1", "selectivity ratio": "> 1.6"}
{"compound": "NC(=S)N/N=C1\\CCc2c1cccc2[N+](=O)[O-]", "selectivity ratio": 14.2}
{"compound": "Cc1cc(Br)c(C)c2c1/C(=N/NC(N)=S)CC2", "selectivity ratio": "> 13.5"}
{"compound": "NC(=O)c1ncn([C@@H]2O[C@H](CO)[C@@H](O)[C@H]2O)n1 [RIBAVIRIN]", "selectivity ratio": 7.1}
